assay: qHTS for Inhibitors of human tyrosyl-DNA phosphodiesterase 1 (TDP1): qHTS in cells in absence of CPT; details: DT40 Tdp1-/- hTDP1 cells, no CPT, ATP luminescence, 48 h; further: nearly all actives have a fitted effect of over 55% in size
The campaign covered roughly 420,000 compounds. About 64,000 (15%) were called active. Not shown: some 27% with an inconclusive outcome. The call rests on the fitted dose curve; in most records, active means well fitted inhibition curve with a large enough effect; inconclusive means small, poorly fitted or top-dose-only effect; inactive means flat fitted curve, though single readings scatter. The list is a sample of the results.
# output must be one of active, inactive

Task item: Record lookup: outcome of this test for "COCCNC(=O)c1onc(CSc2cccc(C)c2)c1C(=O)O" ?
Reply: inactive

Task item: Moving on to the next molecule: CCOc1ccc(S(=O)(=O)N2CCCCC2)cc1NC(=O)CN1CCCC1c1cccs1 (centres undefined)
Reply: active

Task item: Please do the same for Cc1ccc(NC2=NC(c3ccccc3)n3c(nc(C)cc3=O)N2)cc1 (centres undefined) as well.
Reply: inactive

Task item: What do we get for "CCC(=O)c1ccc(OC(=O)/C=C/c2cc(OC)c(OC)c(OC)c2)cc1" ?
Reply: inactive

Task item: What would you report for CCc1ccc(CNC(=O)C2CCCN(c3nc4ccccc4o3)C2)cc1 (centres undefined) ?
Reply: inactive

Task item: Here is the next molecule: Cc1nccn1CCCNC(=O)CC1C(=O)NCCN1Cc1ccc(Cl)c(F)c1 (centres undefined)
Reply: inactive

Task item: Follow-up entry: CC(Oc1cccc(Cl)c1)C(=O)Nc1ccc(S(=O)(=O)Nc2ncccn2)cc1 (centres undefined)
Reply: inactive

Task item: Also need "O=S(=O)(c1ccc(Cl)s1)N1CCC2(CC1)OCCO2" , thanks.
Reply: inactive

Task item: Follow-up item: CC1(C)CC2CC(C)(CN2c2ncnc3ccc(Br)cc23)C1 (centres undefined)
Reply: active

Task item: Entry "CCC(=O)Nc1ccc2c(c1)nc(CCN1CCN(c3ccccn3)CC1)n2C" please
Reply: inactive

Task item: What would you report for "O=C(CSc1nnc(-c2cnccn2)n1Cc1ccco1)c1ccc(Cl)c(Cl)c1" ?
Reply: inactive

Task item: What do you have for "COc1ccccc1Nc1nc(N)nc(CSC(=S)N2CCOCC2)n1" ?
Reply: inactive

Task item: What do you get for "Cn1c(CCN2CCCCCC2)nc2cc(NC(=O)Nc3ccccc3)ccc21" ?
Reply: active

Task item: Next molecule up: "Cc1cc(O)c(NC(=O)c2ccc(C)c([N+](=O)[O-])c2)cc1C"
Reply: inactive

Task item: Now give it for "O=C(CSc1nnc(-c2cccnc2)n1Cc1ccco1)c1ccc(Cl)cc1" too.
Reply: active

Task item: Please do the same for O=C(c1ccc(F)cc1)N1CCCC(C(=O)N2CCCCC2)C1 (centres undefined) as well.
Reply: inactive

Task item: Same lookup for "Cc1ccc(S(=O)(=O)N2CCCCC2)cc1NC(=O)[C@@H]1CCCN1C(=O)c1cccs1" , please.
Reply: inactive

Task item: Another molecule to look at: "O=C(CSc1nnc(C2CC2)n1Cc1ccccc1)Nc1cccnc1Cl"
Reply: inactive

Task item: Moving on to CC(OC(=O)CN1C(=O)C2CCCCC2C1=O)C(=O)Nc1ncc(Cl)cc1Cl (centres undefined)
Reply: inactive

Task item: Input COc1ccc(Cn2cc(CN3CCS(=O)(=O)N(Cc4ccc(-c5cccc(Cl)c5)cc4)C(C)C3=O)nn2)cc1 (centres undefined)
Reply: active

Task item: # iterate: "COc1ccc(Nc2ncnc3ccc(Br)cc23)c(OC)c1"
Reply: inactive

Task item: Can you check COc1ccc(C(=O)NC(C)c2nccs2)cc1OC1CCN(C(C)C)CC1 (centres undefined) next?
Reply: inactive

Task item: Record: "CCCCn1c(N)c(N(CCOC)C(=O)COc2c(C)cccc2C)c(=O)[nH]c1=O"
Reply: inactive

Task item: Now the same for CCC(C(=O)NC1CCCC1)N(C(=O)c1snc(C(N)=O)c1N)c1ccc2c(c1)OCCO2 (centres undefined)
Reply: inactive

Task item: Please do the same for "CC(C)c1ccc(NC(=O)Cn2nnc(C(=O)NCCc3ccccc3)c2N)cc1" as well.
Reply: inactive

Task item: Let us now turn to CCOCCCNC(=O)C(NC(=O)c1ccc(=O)[nH]c1)c1ccc(C)cc1 (centres undefined)
Reply: inactive

Task item: Now consider "CC(=O)Nc1ccc(Oc2ccc3c(c2)C(=O)NC3=O)cc1" and answer again.
Reply: inactive

Task item: Repeat for the following molecule: "Brc1ccc(OCCn2ccnc2)cc1"
Reply: inactive

Task item: Try the molecule "COc1cc(Cl)c(C)cc1NC(=O)CSc1nnc(-c2cccnc2)n1Cc1ccco1"
Reply: inactive

Task item: Same question for "O=C(CNC(=O)c1ccccc1Br)NNC(=O)c1cccs1" please.
Reply: inactive

Task item: Would you kindly repeat that for CCc1ccccc1NC(=O)CSc1nnc([C@@H](NC(=O)OC(C)(C)C)C(C)CC)o1 (some centres undefined) ?
Reply: inactive

Task item: What would you report for "CCSc1nnc(NC(=O)c2cc(=O)c3cc(C)c(C)cc3o2)s1" ?
Reply: inactive

Task item: Could you do the same for NC1=NC(c2cc(F)cc(F)c2)n2c(nc3ccccc32)N1 (centres undefined) , please?
Reply: inactive

Task item: Would you kindly repeat that for "COc1ccc(CN(C(=O)CSc2nnc(-c3ccc(OC)c(OC)c3)o2)c2ccc(F)cc2)cc1" ?
Reply: active

Task item: Now the molecule "O=C(O)CCC(=O)NCc1ccc(C(=O)O)cc1"
Reply: inactive

Task item: Cool, now COc1ccc(CN2CCCC(N3CCc4ccccc4C3)C2)c(O)c1 (centres undefined)
Reply: inactive

Task item: And "COC(=O)c1sccc1NN1C(=O)c2ccccc2C1=O" ?
Reply: inactive

Task item: Item: COc1ccc(NC(=O)N2CCCC(c3nc(-c4ccc(F)cc4)no3)C2)cc1 (centres undefined)
Reply: inactive

Task item: Next molecule: "CCOC(=O)c1cnc(Nc2nc3ccccc3o2)nc1CSC(=S)N1CCCCC1"
Reply: active

Task item: Entry "c1ccc2c(c1)CSc1sccc1C2=C1CCNCC1" please
Reply: active

Task item: Try this molecule too: "CC(C)Oc1c(Br)cc(Br)cc1/C=N/NC(N)=S"
Reply: active

Task item: Continue with "C/C(CC(=O)Nc1ccc(Cl)cc1)=N\NC(=O)C(=O)NCCO"
Reply: inactive

Task item: Can you check CC1=CC(C)(C)Nc2ccc(OC(=O)CN3C(=O)C4CCCCC4C3=O)cc21 (centres undefined) next?
Reply: active

Task item: Do the same for COc1ccc(N(C(=O)c2snc(C(N)=O)c2N)C(C(=O)NC2CCCC2)c2ccco2)cc1OC (centres undefined) please
Reply: inactive

* * *

test: qHTS for Inhibitors of human tyrosyl-DNA phosphodiesterase 1 (TDP1): qHTS in cells in absence of CPT; conditions: DT40 Tdp1-/- hTDP1 cells, no CPT, ATP luminescence, 48 h; further: nearly all actives have a fitted effect of over 55% in size
About 64,000 (15%) of roughly 420,000 compounds were called active. Inconclusive results (about 27%) are left out. Calls come from the whole dose curve; as a rule, active = well fitted inhibition curve with a large enough effect; inconclusive = small, poorly fitted or top-dose-only effect; inactive = flat fitted curve, though single readings scatter. A selection follows.
The categories you may choose from are True for active, False for inactive

Task item: Lab log entry: "CCOc1ccc(/C=N\NC(=O)c2c(C)nc3cc(C)ccn23)cc1" — outcome as called in the assay?
Reply: False

Task item: Now try "O=C(CSCc1c(Cl)cccc1Cl)NN1C(=O)c2ccccc2C1=O" .
Reply: False

Task item: What about this compound? "Cc1ccc(S(=O)(=O)N(C)CC(=O)OCC(=O)N2CC(=O)Nc3ccccc32)cc1"
Reply: False

Task item: Further, for "Cc1ccc(-c2nnc(SCc3ccccc3C)o2)cc1" ?
Reply: False

Task item: Likewise for "CCOc1cc(/C=N/NC(=O)c2c(C)nc3ccc(Cl)cn23)ccc1O" ?
Reply: True

Task item: What would you report for "C=CCOc1nc2c(c(=O)n(C)c(=O)n2C)n1Cc1ccc(Cl)cc1Cl" ?
Reply: True

Task item: Try "CCc1nc2ccc(C(=O)NC3CCN(Cc4ccccc4)CC3)cn2c1N(C)CCN1CCOCC1" next.
Reply: False

Task item: Okay, and "CCOc1cc(C=NNC(=O)CCCC(=O)NN=Cc2ccc(O)c(OCC)c2)ccc1O" ?
Reply: False

Task item: Now give it for "Cc1ccc2nc(C)cc(N/N=C/c3ccc(F)cc3)c2c1" too.
Reply: False

Task item: Again, but for "CN(c1cccc(NC(=O)Nc2ccc(Cl)cc2)c1)S(C)(=O)=O"
Reply: True

* * *

assay: qHTS for Inhibitors of human tyrosyl-DNA phosphodiesterase 1 (TDP1): qHTS in cells in absence of CPT; settings: DT40 Tdp1-/- hTDP1 cells, no CPT, ATP luminescence, 48 h; further: nearly all actives have a fitted effect of over 55% in size
The whole screen tested about 420,000 compounds, of which about 64,000 (15%) were called active. Another 27% or so got no clear call; they are omitted. The call rests on the fitted dose curve; in most records, active means well fitted inhibition curve with a large enough effect; inconclusive means small, poorly fitted or top-dose-only effect; inactive means flat fitted curve, though single readings scatter. These entries were drawn from the full list.
# valid calls are 1 for active, 0 for inactive; nothing else

Task item: What call does the record list for COc1ccc(N2C(=O)C(O)C2c2ccc(C)cc2)cc1 (configuration not stated) ?
Reply: 0

Task item: Now the same for COc1ccc(N2C(=O)CC(N3CCC(C(N)=O)CC3)C2=O)cc1 (configuration not stated)
Reply: 0

Task item: Param item: "Nc1ccccc1N"
Reply: 1

Task item: Same thing, different compound: "Nc1cccnc1Sc1ccccc1"
Reply: 0

Task item: Then what about the compound COC(=O)C1=C(Nc2ccc(OC)cc2)C=C(C)C(C(=O)OC)C1c1ccc(C)cc1 (configuration not stated) ?
Reply: 1

Task item: Repeat with "CC(=O)c1cccc(NC(=S)N2CCN(S(C)(=O)=O)CC2)c1"
Reply: 0

Task item: Entry to check: "Nc1ccccc1/C=N\N=C/c1ccccc1N"
Reply: 0

Task item: Follow-up entry: "COCc1c(C(=O)OCc2c(C)noc2C)oc2ccccc12"
Reply: 0

Task item: Follow-up item: "Cc1cc(C(F)(F)F)c(C#N)c(SCC(=O)NC2CC2)n1"
Reply: 0

Task item: Same lookup for N#CCSc1ccccc1NC(=O)CN1C(=O)NC(CCc2ccccc2)C1=O (configuration not stated) , please.
Reply: 0

Task item: Try this compound next: "O=C(COC(=O)Cn1cnc2ccccc2c1=O)NCc1ccccc1Cl"
Reply: 0

Task item: What about CC(CC(=O)O)CC(=O)NNC(=O)c1cccc(Br)c1 (configuration not stated) ?
Reply: 0
